# maps each entry to its Limits of detection
Biological target: CYP3A4 (Homo sapiens, UniProt P08684)
Sequence (P08684 whole entry): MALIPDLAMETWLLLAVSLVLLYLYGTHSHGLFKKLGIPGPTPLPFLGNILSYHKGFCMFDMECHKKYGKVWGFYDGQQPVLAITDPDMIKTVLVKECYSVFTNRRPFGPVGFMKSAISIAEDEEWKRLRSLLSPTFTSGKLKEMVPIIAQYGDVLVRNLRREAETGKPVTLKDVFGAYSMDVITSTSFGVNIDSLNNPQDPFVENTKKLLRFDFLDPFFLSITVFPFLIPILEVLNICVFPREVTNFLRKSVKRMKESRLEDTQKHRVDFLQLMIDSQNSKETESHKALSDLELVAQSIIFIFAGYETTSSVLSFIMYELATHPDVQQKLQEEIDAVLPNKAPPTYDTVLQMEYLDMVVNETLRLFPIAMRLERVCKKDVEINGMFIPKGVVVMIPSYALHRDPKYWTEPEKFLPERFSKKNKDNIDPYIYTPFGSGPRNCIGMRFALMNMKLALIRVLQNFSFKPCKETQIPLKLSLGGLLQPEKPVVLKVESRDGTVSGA
Type: biochemical
Details: CYP3A4, DBF substrate; concentration providing 20% inhibition (IC20)
OBSERVABLE: Limits of detection

- Brc1cc(Br)c(Oc2cc(Br)c(Br)cc2Br)c(Br)c1: 5 ng/mL
- Brc1ccc(Oc2cc(Br)c(Br)cc2Br)c(Br)c1: 100 ng/mL
- Brc1ccc(Oc2ccc(Br)cc2Br)cc1: 100 ng/mL
- Brc1cc(Br)c(Oc2cc(Br)c(Br)cc2Br)cc1Br: 5 ng/mL
- Brc1ccc(Oc2c(Br)cc(Br)cc2Br)c(Br)c1: 5 ng/mL
- Brc1ccc(Oc2ccc(Br)cc2Br)c(Br)c1: 5 ng/mL
- Brc1c(Br)c(Br)c(Oc2c(Br)c(Br)c(Br)c(Br)c2Br)c(Br)c1Br: 10 ng/mL
